System: KM12 colon
Procedure Text: NCI tumour cell line growth inhibition, 48 h
compounds and their reported TGI

Known TGI results, listed for orientation:
[[record]]
compound = "C[C@@H]1CC[C@@]2(OC1)O[C@H]1C[C@H]3[C@@H]4CC=C5C[C@@H](O[C@@H]6O[C@H](CO)[C@@H](O[C@@H]7O[C@@H](CO)[C@H](O)[C@H]7O)[C@H](O)[C@H]6O[C@@H]6O[C@@H](C)[C@H](O)[C@@H](O)[C@H]6O)CC[C@]5(C)[C@H]4CC[C@]3(C)[C@H]1[C@@H]2C"
observed_result = "2.15 µM"

[[record]]
compound = "COC(=O)C1=C(O)C(C(=O)OC)[C@]2(O)[C@H](C(=O)OC)[C@H]1C[C@@H](c1ccc(OC)cc1)[C@H]2C(=O)OC (some centres not stated)"
observed_result = "41.3 µM"

[[record]]
compound = "COC(=O)CCC1=C(C)c2cc3[n-]c(cc4nc(cc5[n-]c(cc1n2)c(CCC(=O)OC)c5C)C=C4C)cc3C.[Cd+2]"
observed_result = "13.6 µM"

[[record]]
compound = "Cn1c(O)c(C(=O)Nc2ccc([N+](=O)[O-])cc2)c(=O)n(C)c1=S"
observed_result = "7.05 µM"


Task: Give me measured TGI, please, for this compound: CCOC(=O)c1nc2cc(C(F)(F)F)ccc2nc1Nc1ccc(Cl)c(Cl)c1
Output: > 100 µM

Task: Read the entry COc1ccc(O)c2c1C(=O)CCCC2=O and write its reported TGI.
Output: > 100 µM

Task: Name the recorded TGI of the item Cc1ccc(S(=O)(=O)N/N=C2\C=C[C@]3(CC2)C(=O)N(C)c2ccccc23)cc1 in your answer.
Output: > 100 µM

====

Listed here: items and their measured GI50.
System: DU-145 prostate
Procedure Text: NCI tumour cell line growth inhibition, 48 h

These solved cases illustrate the format of a correct answer.
[[record]]
compound = "COc1ccccc1-n1c(SCc2cc(OC)c(OC)c(OC)c2)nc2ccc(Cl)cc2c1=O"
parameter = "GI50"
observed_result = "9.12 µM"

[[record]]
compound = "COc1ccc([C@H]2O[C@@H](CO)C[C@]2(O)c2ccc(OC)cc2)cc1"
parameter = "GI50"
observed_result = "> 100 µM"

[[record]]
compound = "CN(Cc1cnc2nc(N)nc(N)c2n1)c1ccc(C(=O)NC(CCC(=O)O)C(=O)O)cc1 (centres undefined)"
parameter = "GI50"
observed_result = "0.204 µM"


Task: Give me measured GI50, please, for this compound: CC(C)(C)CC(C)(C)c1ccc(OCCOCCSC(=N)N)cc1
Output: 1.84 µM

Task: Please supply the value of reported GI50 for the item C=C(C)C1/C=C(/C(C)C)CC[C@]2(C)O[C@@H]2CC[C@H](C)CC1=O (some centres undefined)
Output: 49.6 µM

Task: In one line, give reported GI50 of the entry c1ccc(-c2nc(N3CCNCC3)c3nc(-c4ccccc4)oc3n2)cc1 .
Output: 1.86 µM

====

System: A549 NSCLC
Procedure Text: NCI tumour cell line growth inhibition, 48 h; in the data active = GI50 below about 0.43 µM; inactive = the rest
Hello, when you answer, please use one of the following outcomes: active, inactive

Take a look at these entries with their results.
[[record]]
molecule = "O=c1[nH]c(-c2ccc(C(F)(F)F)cc2)nc2c1CSCC2"
label_value = "inactive"

[[record]]
molecule = "CC#CC(=O)N1CCC[C@H]1c1nc(-c2ccc(C(=O)Nc3ccccn3)cc2)c2c(N)nccn12"
label_value = "inactive"

[[record]]
molecule = "Cn1cnc([N+](=O)[O-])c1Sc1ncnc2c1ncn2C1OC(CO)C(O)C1O (stereo not given)"
label_value = "inactive"

[[record]]
molecule = "COc1ccc(C(O)c2cc3c(N)c(C(=O)Nc4cccc(Br)c4)sc3nc2C)cc1 (stereo not given)"
label_value = "active"


Please look at the following molecule next.
Task: What did the test return for C[Se]C(=O)CC1=C2C=C(F)C=CC2/C(=C\c2ccc(S(C)=O)cc2)C1C (stereo not given) ?
Output: active

====

Reported TGI values for the following compounds.
Tested on: OVCAR-8 ovarian
Procedure Text: NCI tumour cell line growth inhibition, 48 h
Write the answer as a number in µM, unit excluded.

[[record]]
compound = "C[C@H]1[C@@H](OCC(CO[C@H]2O[C@@H]3O[C@@]4(C)CC[C@H]5[C@H](C)CC[C@@H]([C@H]2C)[C@@]35OO4)=NOCC(=O)O)OC2O[C@@]3(C)CC[C@H]4[C@H](C)CC[C@@H]1[C@@]24OO3 (stereo partly specified)"
endpoint_unit = "µM"
observed_result = 16.4

[[record]]
compound = "CC/C(Cl)=N\\OC(=O)Nc1ccc(C#N)cc1"
endpoint_unit = "µM"
observed_result = 30.7

[[record]]
compound = "COc1ccc(/C=C2\\N=C3SC=C(N)N3C2=O)cc1"
endpoint_unit = "µM"
observed_result = 10.4

[[record]]
compound = "O=C(C1OC1c1ccc([N+](=O)[O-])cc1)C12CC3CC(CC(C3)C1)C2 (stereo unspecified)"
endpoint_unit = "µM"
observed_result = 38.2

[[record]]
compound = "Cn1c(O)c(C(=O)Nc2ccc([N+](=O)[O-])cc2)c(=O)n(C)c1=S"
endpoint_unit = "µM"
observed_result = 14.9


Task: Give the observed TGI of CCN(CC)CCNc1ccc(C)c2sc3ccc(O)cc3c(=O)c12 for OVCAR-8 ovarian.
Output: 3.2

Task: Provide measured TGI on OVCAR-8 ovarian for Cc1[nH]c2ccccc2c1C=Nc1ccc(Oc2ccccc2)cc1 please.
Output: 43.4

Task: Lab note: OVCAR-8 ovarian assay, enter TGI for N#Cc1nc(-c2ccccc2)oc1S(=O)(=O)N1CCOCC1 here
Output: 16.2

====

Test system: RPMI-8226 leukemia
Procedure Text: NCI tumour cell line growth inhibition, 48 h
Recorded TGI by entry

As a guide, the following entries are already answered.
[[record]]
compound = "O=C1c2cc(CCl)sc2C(=O)c2ccsc21"
observed_result = "0.558 µM"

[[record]]
compound = "CC(C)(C)OC(=O)NC(Cc1ccc([N+](=O)[O-])cc1)C(=O)NC(CCCCNC(=O)OCc1ccccc1)C(=O)ON1C(=O)CCC1=O (stereo unspecified)"
observed_result = "> 100 µM"

[[record]]
compound = "O=[N+]([O-])C1(C2([N+](=O)[O-])CCCC2)CCCC1"
observed_result = "> 100 µM"

[[record]]
compound = "COc1cc(C2C(C(=O)Nc3ccccc3)=C(C)NC(C)=C2C(=O)Nc2ccccc2)ccc1O"
observed_result = "> 100 µM"

[[record]]
compound = "C/C(=N\\Nc1ccc([N+](=O)[O-])cc1)C(=O)N(C)Nc1ccccc1"
observed_result = "> 100 µM"


Task: Tell me TGI reported for CCOC(=O)C(C[Si](C)(C)C)P(=O)(OCC)OCC (stereo unspecified)
Output: > 100 µM

====

System: MDA-MB-435
Your reply should match one of these outcome classes. active, inactive

Here are 9 compounds together with their reported answers.
[[record]]
compound = "COc1cc(C2C(C#N)=C(N)OC3=C2C(=O)c2ccccc2C3=O)cc(OC)c1OC (stereo not given)"
tested_on = "MDA-MB-435"
label_value = "active"

[[record]]
compound = "CC(=O)N1CC(F)(F)c2c(Sc3ncc(N4CCC5(CC4)COC[C@H]5N)nc3N)cccc21"
tested_on = "MDA-MB-435"
label_value = "inactive"

[[record]]
compound = "COc1ccc(/C=C2\\N=C3SC=C(N)N3C2=O)cc1"
tested_on = "MDA-MB-435"
label_value = "inactive"

[[record]]
compound = "COc1ccc([C@H]2O[C@@H](CO)C[C@]2(O)c2ccc(OC)cc2)cc1"
tested_on = "MDA-MB-435"
label_value = "inactive"

[[record]]
compound = "CCNCCNc1cc(-c2ccc(F)cc2)c(C#N)c2nc3ccccc3n12"
tested_on = "MDA-MB-435"
label_value = "inactive"

[[record]]
compound = "C#Cc1ccc(NC(=O)c2ccc(/C=C/C(=O)c3nccn3C)cc2)cc1"
tested_on = "MDA-MB-435"
label_value = "inactive"

[[record]]
compound = "c1ccc(-c2nc(N3CCNCC3)c3nc(-c4ccccc4)oc3n2)cc1"
tested_on = "MDA-MB-435"
label_value = "inactive"

[[record]]
compound = "CCCC[C@@H](COC(=O)N(Cc1cccs1)Cc1cccs1)NC(=O)N[C@@H](CC(=O)OC)c1ccc2c(c1)OCO2"
tested_on = "MDA-MB-435"
label_value = "inactive"

[[record]]
compound = "O=Nc1c(O)ccc2ccccc12"
tested_on = "MDA-MB-435"
label_value = "inactive"


Switching to the query record.
Task: Short answer needed: outcome of this test for Oc1ccccc1-n1c(-c2ccccc2)ccc1-c1ccccc1 ?
Output: inactive

====

Tested on: M14 melanoma
Procedure Text: NCI tumour cell line growth inhibition, 48 h
Parameter: TGI

Here's what some known entries look like.
[[record]]
compound = "C[C@@H]1CCC2[C@@H](C)C(=O)O[C@@H]3C4C[C@@H]1[C@@]23OO[C@@]4(C)O (stereo not given in full)"
observed_result = "> 100 µM"

[[record]]
compound = "COc1ccc(/C=C2\\N=C3SC=C(N)N3C2=O)cc1"
observed_result = "4.73 µM"

[[record]]
compound = "O=Nc1c(O)ccc2ccccc12"
observed_result = "3.84 µM"


Task: Supply recorded TGI for CCOC(=O)c1nc2cc(C(F)(F)F)ccc2nc1Nc1ccc(Cl)c(Cl)c1 here.
Output: > 100 µM

Task: Supply recorded TGI for CC1=C(C(=O)OC(C)C)C(c2ccccc2[N+](=O)[O-])C(C(=O)OC(CO[N+](=O)[O-])CO[N+](=O)[O-])=C(C)N1 (stereo not given) here.
Output: 14.3 µM

Task: Check the records and state TGI for Nc1cccc(OCc2nc(N)nc(N)c2-c2ccc(Cl)cc2)c1
Output: > 100 µM
